tested on: IGR37 cells (parental); test: Kinase inhibitor library screening, PrestoBlue cell viability, 1 or 10 μM, 72 h; settings: IGR37 Parental; 1μΜ; 72 h; in %
endpoint: cell viability, IGR37 Parental, 1μΜ
Give bare numbers.

1) Cc1cnc(Nc2ccc(N3CCN(C)CC3)cc2)nc1Nc1cccc(S(=O)(=O)NC(C)(C)C)c1 = 97.5

Dear colleague, could you send me cell viability, IGR37 Parental, 1μΜ for each of the items below? Thanks.
1. COc1cc2ncnc(Nc3cccc(Cl)c3)c2cc1OC
2. CCC[C@H](NC(=O)/C(C#N)=C/c1cccc(Br)n1)c1ccccc1 [WP1130, reference compound]
3. C#Cc1cccc(Nc2ncnc3cc(OCCOC)c(OCCO)cc23)c1 [OSI-420 (Desmethyl Erlotinib)]

1: 96.0; 2: 99.4; 3: 108.5

* * *

test system: A375 cells (parental); assay: Kinase inhibitor library screening, PrestoBlue cell viability, 1 or 10 μM, 72 h; details: A375 Parental, 1μΜ, 72 h; in %
Exercise: for every item that follows, state its recorded cell viability, A375 Parental, 1μΜ.
Numbers only.

Worked cases, answers included:
1) C[C@@H]1CCN(C(=O)CC#N)C[C@@H]1N(C)c1ncnc2[nH]ccc12 = 104.5
2) COc1cc2ncnc(Nc3ccc(F)c(Cl)c3)c2cc1NC(=O)/C=C/CN1CCCCC1 = 94.4
3) C=CC(=O)Nc1cccc(Oc2nc(Nc3ccc(N4CCN(C)CC4)cc3)ncc2Cl)c1 = 87.2
4) C=CC(=O)Nc1cccc(Sc2nc(Nc3ccc(N4CCN(C)CC4)cc3)ncc2Cl)c1 = 97.5
5) CC(=O)Nc1cccc(-n2c(=O)n(C3CC3)c(=O)c3c(Nc4ccc(I)cc4F)n(C)c(=O)c(C)c32)c1 = 21.7
6) COc1cccc(-c2cc(=O)c3ccccc3o2)c1N = 98.4

Dear colleague, could you send me cell viability, A375 Parental, 1μΜ for each of the items below? Thanks.
1. CC(C)(C)c1cc(C=C(C#N)C#N)cc(Br)c1O
2. O=C(NOCC(O)CO)c1cc(Br)c(F)c(F)c1Nc1ccc(I)cc1F (stereo not drawn)
3. Cc1cnc(Nc2ccc(N3CCN(C)CC3)cc2)nc1Nc1cccc(S(=O)(=O)NC(C)(C)C)c1
4. CN1CCN(c2ccc3nc(-c4c(N)c5c(F)cccc5[nH]c4=O)[nH]c3c2)CC1
5. CCC[C@H](NC(=O)/C(C#N)=C/c1cccc(Br)n1)c1ccccc1 [WP1130, reference compound]

99.7
19.2
87.8
102.8
89.3

Field cell viability, A375 Parental, 1μΜ (A375 cells (parental)), entry `Cc1c(NC(=O)OC[C@@H]2COCCN2)cn2ncnc(Nc3ccc4c(cnn4Cc4cccc(F)c4)c3)c12` : 103.3

* * *

tested on: IGR37-GP cells (Dabrafenib-resistant); test: Kinase inhibitor library screening, PrestoBlue cell viability, 1 or 10 μM, 72 h; details: IGR37 GP; 1μΜ; 72 h; in %
endpoint: cell viability, IGR37 GP, 1μΜ
Give bare numbers.

Worked cases, answers included:
1. CN1CCN(c2cccc(Nc3nc4c(-c5ccc(S(C)(=O)=O)cc5)cccn4n3)c2)CC1 = 93.0
2. CN(C)Cc1cccc(N/C(=C2\C(=O)Nc3cc(C(=O)N(C)C)ccc32)c2ccccc2)c1 = 92.6
3. Cc1cnc(Nc2ccc(OCCN3CCCC3)cc2)nc1Nc1cccc(S(=O)(=O)NC(C)(C)C)c1 [TG101348 (SAR302503)] = 95.7
4. Nc1ncnc2c1c(-c1cccc(OCc3ccccc3)c1)cn2C1CC(CN2CCCC2)C1 (stereo not drawn) = 83.7
5. C=CC(=O)Nc1cccc(Sc2nc(Nc3ccc(N4CCN(C)CC4)cc3)ncc2Cl)c1 = 90.2

Dear colleague, could you send me cell viability, IGR37 GP, 1μΜ for each of the items below? Thanks.
1. CCc1cc(Nc2nccc(-c3c(-c4ccc(OC)c(C(=O)Nc5c(F)cccc5F)c4)nc4ccccn34)n2)c(OC)cc1N1CCC(N2CCN(S(C)(=O)=O)CC2)CC1 [GSK1904529A]
2. Nc1cccc(-c2cc3c(Oc4cccc(O)c4)ncnc3[nH]2)c1
3. COc1cc2ncnc(Nc3cccc(Cl)c3)c2cc1OC
4. CNC(=O)c1ccccc1Nc1nc(Nc2ccc(N3CCOCC3)cc2OC)ncc1Cl
5. CCOc1cc2ncc(C#N)c(Nc3ccc(F)c(Cl)c3)c2cc1NC(=O)/C=C/CN(C)C [Pelitinib (EKB-569)]
6. COc1cc2c(N3CCN(C(=O)Nc4ccc(OC(C)C)cc4)CC3)ncnc2cc1OCCCN1CCCCC1
7. O=c1cc(N2CCOCC2)oc2c(-c3cccc4c3sc3ccccc34)cccc12

1: 98.3; 2: 96.5; 3: 88.5; 4: 59.0; 5: 97.5; 6: 95.6; 7: 92.2

Dear colleague, could you send me cell viability, IGR37 GP, 1μΜ for each of the items below? Thanks.
1. Cc1c(NC(=O)OC[C@@H]2COCCN2)cn2ncnc(Nc3ccc4c(cnn4Cc4cccc(F)c4)c3)c12
2. CNC(=O)c1c(F)cccc1Nc1nc(Nc2cc3c(cc2OC)CCN3C(=O)CN(C)C)nc2[nH]ccc12 [GSK1838705A, reference compound]
3. C[C@@H]1CCN(C(=O)CC#N)C[C@@H]1N(C)c1ncnc2[nH]ccc12.O=C(O)CC(O)(CC(=O)O)C(=O)O [Tofacitinib citrate (CP-690550 citrate)]

1. 95.5
2. 73.7
3. 98.3

* * *

tested on: 501Mel cells (parental); experiment: Kinase inhibitor library screening, PrestoBlue cell viability, 1 or 10 μM, 72 h; settings: 501Mel Parental, 10μΜ; in %
Exercise: for every item that follows, state its recorded cell viability (kinase inhibitor library screening).
Numbers only.

Worked cases, answers included:
1) COC(=O)c1ccc2c(c1)NC(=O)/C2=C(\Nc1ccc(N(C)C(=O)CN2CCN(C)CC2)cc1)c1ccccc1 = 0.6
2) COc1cc(Nc2ncc(F)c(Nc3ccc4c(n3)NC(=O)C(C)(C)O4)n2)cc(OC)c1OC [R406(free base)] = 57.6
3) COc1cc(Nc2ncc(F)c(Nc3ccc4c(n3)N(COP(=O)([O-])[O-])C(=O)C(C)(C)O4)n2)cc(OC)c1OC.[Na+].[Na+] = 84.1
4) COc1cc2nccc(Oc3ccc(NC(=O)Nc4cc(C)on4)c(Cl)c3)c2cc1OC = 74.1
5) Cc1cc2c(F)c(Oc3ncnn4cc(OC[C@@H](C)OC(=O)[C@H](C)N)c(C)c34)ccc2[nH]1 [Brivanib alaninate (BMS-582664)] = 91.7
6) C=CCn1c(=O)c2cnc(Nc3ccc(N4CCN(C)CC4)cc3)nc2n1-c1cccc(C(C)(C)O)n1 [MK-1775, reference compound] = 24.2

Consider the additional molecule presented here.
cell viability (kinase inhibitor library screening) in this record for COc1cc(Nc2c(C#N)cnc3cc(OCCCN4CCN(C)CC4)c(OC)cc23)c(Cl)cc1Cl [Bosutinib (SKI-606)] : 0.645

* * *

Exercise: for every item that follows, state its recorded Cell viability in kinase inhibitor library screening, 501Mel GP, 1μΜ.
system: 501Mel-GP cells (Dabrafenib-resistant); assay: Kinase inhibitor library screening, PrestoBlue cell viability, 1 or 10 μM, 72 h; conditions: 501Mel GP; 1μΜ; 72 h; in %
Numbers only.

Worked cases, answers included:
1. COC(=O)Nc1ccc(-c2nc(N3CCOCC3)c3cnn(C4CCN(C(=O)OC)CC4)c3n2)cc1 [WYE-354] = 76.5
2. CC(C)(C)Cn1c(N)nc2ccc(-c3[nH]c(C(C)(C)C)nc3-c3ccc(F)cc3)nc21 [LY2228820] = 108.2
3. CC(C)(C)c1nc(-c2cccc(NS(=O)(=O)c3c(F)cccc3F)c2F)c(-c2ccnc(N)n2)s1 [Dabrafenib (GSK2118436)] = 96.2
4. Cc1cc(C(C)Nc2ccccc2)c2nc(N3CCOCC3)cc(=O)n2c1 (centres unmarked) [TGX-221] = 102.9

Consider the additional compound presented here.
Field Cell viability in kinase inhibitor library screening, 501Mel GP, 1μΜ (501Mel-GP cells (Dabrafenib-resistant)), entry Nc1nc(N)c2nc(-c3cccc(O)c3)cnc2n1 [TG 100713] : 98.4

* * *

System: 501Mel-GP cells (Dabrafenib-resistant)
Assay: Kinase inhibitor library screening, PrestoBlue cell viability, 1 or 10 μM, 72 h
Settings: 501Mel GP; 1μΜ; 72 h; in %
Description: After 72 h of treatment, cell viability was assessed using the PrestoBlue Cell Viability Reagent (ThermoFisher Scientific). Measurements were performed with the CLARIOstar Monochromator microplate reader (BMG Labtech). Kinase inhibitor library screening. […] Drugs were added at 2 different concentrations, 1 and 10 μM, for 72 h and cell viability was assessed using the PrestoBlue Cell Viability assay. […] Each cell line was analyzed at least in duplicate. […]
endpoint: Cell viability in kinase inhibitor library screening, 501Mel GP, 1μΜ
Give bare numbers.

1) FC(F)c1nc2ccccc2n1-c1nc(N2CCOCC2)nc(N2CCOCC2)n1 [ZSTK474] = 45.9

Dear colleague, could you send me Cell viability in kinase inhibitor library screening, 501Mel GP, 1μΜ for each of the items below? Thanks.
1. Cc1ccc([N+](=O)[O-])cc1S(=O)(=O)N(C)/N=C/c1cnc2ccc(Br)cn12 [PIK-75, reference compound]
2. O=C1NC(=O)/C(=C\c2ccc3nccnc3c2)S1 [AS-605240]
3. CN1CCN(c2nc(C3=C(c4c[nH]c5ccccc45)C(=O)NC3=O)c3ccccc3n2)CC1 [Sotrastaurin (AEB071)]
4. COc1ncc(-c2ccc3nccc(-c4ccnnc4)c3c2)cc1NS(=O)(=O)c1ccc(F)cc1F [GSK2126458]
5. NC(=O)c1ccc(N(C(N)=O)c2c(F)cccc2F)nc1-c1ccc(F)cc1F [VX-702]
6. O=C1NC(=O)C(=Cc2ccc(-c3ccc(F)cc3)o2)S1 (stereo in doubt) [CAY10505]
7. CCn1c(=O)c(-c2cc[nH]n2)cc2c(C)nc(N)nc21 [XL765]

[0.164, 107.4, 105.7, 6.0, 99.8, 96.4, 109.6]

Dear colleague, could you send me Cell viability in kinase inhibitor library screening, 501Mel GP, 1μΜ for each of the items below? Thanks.
1. COc1ccc(-c2cc3c(C)nc(N)nc3n([C@H]3CC[C@H](OCCO)CC3)c2=O)cn1 [PF-04691502, reference compound]
2. NCC(=O)Nc1ccc(-n2nc(C(F)(F)F)cc2-c2ccc3c(ccc4ccccc43)c2)cc1 [OSU-03012]
3. O=C1NC(=O)/C(=C/c2ccc3nccc(-c4ccncc4)c3c2)S1 [GSK1059615]
4. CC[C@@H]1C(=O)N(C)c2cnc(Nc3ccc(C(=O)NC4CCN(C)CC4)cc3OC)nc2N1C1CCCC1 [BI 2536]
5. Cn1c(=O)n(-c2ccc(C(C)(C)C#N)cc2)c2c3cc(-c4cnc5ccccc5c4)ccc3ncc21 [BEZ235 (NVP-BEZ235)]
6. O=C(NCCCNc1nc(Nc2cccc(NC(=O)N3CCCC3)c2)ncc1I)c1cccs1 [BX-795]
7. CNC(=O)c1cccc(-c2ccc3c(N4CCOC[C@@H]4C)nc(N4CCOC[C@@H]4C)nc3n2)c1 [AZD2014]
8. CNC(=O)Nc1ccc(-c2nc(N3CC4CCC(C3)O4)c3cnn(C4CCC5(CC4)OCCO5)c3n2)cc1 [WYE-125132]

1: 14.9; 2: 94.0; 3: 45.2; 4: 52.3; 5: 19.1; 6: 97.1; 7: 28.3; 8: 16.3
